# protocol-description: NCI Yeast Anticancer Drug Screen. Data for the rad18 strain (AID 177)
# assay-setup: S. cerevisiae rad18 mutant growth inhibition; at 11.0 µM; active compounds read high
About 79,000 compounds went through this panel and 15% of them were active in at least one assay; those are over-represented in the sample as a whole.
growth inhibition reference
observation-type: growth inhibition (%)

compound=CCCNC(=O)OCc1c(COC(=O)NCCC)c(-c2ccc(Cl)c(Cl)c2)n2c1CCC2 units=% reported_result=2
compound="O=C1NC(c2cccc(OCc3ccccc3)c2)Nc2ccccc21 (stereo unspecified)" units=% reported_result=-26
compound=O=C(NO)c1coc2ccccc2c1=O units=% reported_result=2
compound=CC(C)=CCC/C(C)=C/CN1C(=O)C=CC1=O units=% reported_result=99
compound=CNCC(C)CNC units=% reported_result=-21
compound="O=C(O)c1cc2c(cc1S(=O)(=O)O)C1C(C3C2C2(Cl)C(Cl)=C(Cl)C3(Cl)C2(Cl)Cl)C2(Cl)C(Cl)=C(Cl)C1(Cl)C2(Cl)Cl (stereo unspecified)" units=% reported_result=-8
compound=CS(=O)(=O)O.[Ag] units=% reported_result=99
compound=CNC(=O)OCc1c(COC(=O)NC)c(C)n(-c2ccc(Br)cc2)c1C units=% reported_result=-5
compound=CC(=O)NC(c1nc2cc(C)c(C)cc2[nH]1)c1nc2cc(C)c(C)cc2[nH]1 units=% reported_result=6
compound=O=C(C#Cc1ccccc1)/C=C/c1ccccc1 units=% reported_result=13
compound="c1ccc(-c2cc(C3CO3)c3ccccc3n2)cc1 (stereo unspecified)" units=% reported_result=53

###

# protocol-description: NCI Yeast Anticancer Drug Screen. Data for the mlh1 rad18 strain (AID 175)
# assay-setup: S. cerevisiae mlh1 rad18 strain growth inhibition; at 50.0 µM (retest, dose inferred, filed as 5.0); active compounds read high
This is part of a sample that, as a whole, favours compounds with a hit. Of some 79,000 tested, about 15% had one in any assay.
observation-type: growth inhibition (%)

compound="CCCCCCCCCCCCCCCCCCN(C)C(COC)COP(=O)([O-])OCC[N+](C)(C)C (configuration not stated)" observation_type="growth inhibition" reported_result=98
compound="O=C1NC(c2cccc(OCc3ccccc3)c2)Nc2ccccc21 (configuration not stated)" observation_type="growth inhibition" reported_result=71
compound=COC(=N)c1ccc(O)c(C)c1 observation_type="growth inhibition" reported_result=-74
compound="O=C(NCCCCN1CC2CCCC2C1)C(C1CCCCC1)C1CCCCC1 (configuration not stated)" observation_type="growth inhibition" reported_result=96
compound=COC(=O)C1=C(C(=O)OC)CC(n2nnc(C(=O)OC)c2C(=O)OC)=CC1 observation_type="growth inhibition" reported_result=44
compound=CNC(=O)OCc1c2ccncc2c(C)c2c1[nH]c1ccccc12 observation_type="growth inhibition" reported_result=71
compound=COc1ccc(/C=C2\SC(=S)N(/C=C3\C(=O)N(c4ccccc4)N=C3C)C2=O)cc1OC observation_type="growth inhibition" reported_result=67
compound=CC(C)=CCc1c2c(c(O)c3c(=O)c(-c4ccc(O)c(O)c4)coc13)C=CC(C)(C)O2 observation_type="growth inhibition" reported_result=90
compound="CC1(c2ccccc2)O[C@@H]2C[C@H]3[C@@H]4CCC5=CC(=O)C=C[C@]5(C)[C@@]4(F)[C@@H](O)C[C@]3(C)[C@]2(C(=O)CO)O1 (some centres not stated)" observation_type="growth inhibition" reported_result=56
compound="O=C1C(=C2CCCC2)CCC1CN1CCCCC1 (configuration not stated)" observation_type="growth inhibition" reported_result=83
compound="CCN1CCC(O)(c2ccc(Oc3ccc(C)cc3)cc2)C(C(=O)c2ccc(Oc3ccc(C)cc3)cc2)C1 (configuration not stated)" observation_type="growth inhibition" reported_result=95
compound=CCCCCCCCCCCCCCCCCCNC(=S)/N=C/c1c(O)c2ccccc2[nH]c1=O observation_type="growth inhibition" reported_result=28
compound=CCCCCCCCCC(=O)N(CCC)CCC observation_type="growth inhibition" reported_result=99
compound=NC(=S)N1N=C2c3ccccc3CC[C@H]2[C@@H]1c1ccc(Cl)cc1 observation_type="growth inhibition" reported_result=93
compound="O=C1C(CCSc2ccccc2)C(=O)N(c2ccccc2)C1c1ccccc1 (configuration not stated)" observation_type="growth inhibition" reported_result=87
compound=NC(=S)N1N=C2c3ccccc3CC[C@@H]2[C@@H]1c1ccccc1 observation_type="growth inhibition" reported_result=81
compound=CCCCCCCCCCCCOCCOCCOCC(N)=O observation_type="growth inhibition" reported_result=43
compound=CCS(=O)(=O)Nc1ccc(Nc2c3ccccc3nc3ccccc23)c(OC)c1 observation_type="growth inhibition" reported_result=97
compound="COc1ccc2cc(C(C)C(=O)N3CCOC3=O)ccc2c1 (configuration not stated)" observation_type="growth inhibition" reported_result=78
compound=O=C1c2ccccc2-c2ccc(N=Cc3ccccc3)cc21 observation_type="growth inhibition" reported_result=46
compound=CN(CCOc1ccc(Cl)cc1)CCOc1ccc(Cl)cc1 observation_type="growth inhibition" reported_result=99
compound=CCCCN(CCC#N)c1ccc(/C=C/c2ccnc3ccccc23)cc1 observation_type="growth inhibition" reported_result=74

###

# protocol-description: NCI Yeast Anticancer Drug Screen. Data for the bub3 strain (AID 167)
# assay-setup: S. cerevisiae bub3 mutant strain, at 33.0 µM, active compounds read high
About 79,000 compounds went through this panel and 15% of them were active in at least one assay; those are over-represented in the sample as a whole. The source made the active and inactive calls. Rule as the data show it: active = growth inhibition above about 70%; inactive = the rest.
# growth inhibition per record follows
observation-type: growth inhibition

compound=Cc1c2c(nc3ccccc13)C(=O)c1cccnc1C2=O reported_result="4% (inactive)"
compound=CSc1nc(-c2ccccc2)nc(=[N+]2CCOCC2)s1 reported_result="82% (active)"
compound=NC(=S)N1N=C2c3ccccc3CC[C@H]2[C@@H]1c1ccc(Cl)cc1 reported_result="46% (inactive)"
compound="CC(C)C(=O)CC(Sc1ccc(N)cc1)c1ccccc1 (configuration not stated)" reported_result="91% (active)"
compound=CC1=CC(=O)C=CC1=Nc1cc(Cl)c(O)c(Cl)c1 reported_result="49% (inactive)"
compound=O=[N+]([O-])c1cc[n+]([O-])c(Cl)c1 reported_result="98% (active)"
compound=CCN(CC)CCNc1ccc2ncn3c4ccc(O)cc4c(=O)c1c23 reported_result="4% (inactive)"
compound=CC(C)OC(=O)NNc1cc(Cl)ccc1Cl reported_result="39% (inactive)"
compound="CC12CCC(CC(=O)/C1=C(/Br)I)C2(C)C (configuration not stated)" reported_result="24% (inactive)"
compound=O=C(CCSC1=NCCCN1)c1ccc(F)cc1 reported_result="-26% (inactive)"
compound=S=C1N(c2ccc(Cl)cc2)C2=C(N=Nc3ccccc3)C(=Nc3ccccc3S2)N1c1ccccn1 reported_result="84% (active)"
compound=O=C(Oc1ccc([N+](=O)[O-])cc1)c1ccc([N+](=O)[O-])cc1 reported_result="12% (inactive)"

###

# protocol-description: NCI Yeast Anticancer Drug Screen. Data for the bub3 strain (AID 167)
# assay-setup: S. cerevisiae bub3 mutant strain, at 50.0 µM, active compounds read high
The panel holds about 79,000 compounds, 15% with a hit somewhere; the sample as a whole holds those more often.
observation-type: growth inhibition (%)

compound="COC1/C=C\\C=C(/C)C(=O)NC2=CC(=O)C(=O)C(=C2O)CC(C)CC(OC)C(O)C(C)/C=C(\\C)C1OC(N)=O (stereo not drawn)" observation_type="growth inhibition" reported_result=86.2
compound=CN(C)CCCn1c2c3ccccc3ccc2c2oc(=O)c3ccccc3c21 observation_type="growth inhibition" reported_result=99.2
compound=CCCNCC(=O)O[C@]1(CC)C(=O)OCc2c1cc1n(c2=O)Cc2cc3ccccc3nc2-1 observation_type="growth inhibition" reported_result=76.3
compound="CCCC/C=C1\\CCC(CN2CCCC2)C1=O (stereo not drawn)" observation_type="growth inhibition" reported_result=80.7
compound=CC(C)(C)c1ccc2c(c1)C(=O)c1ccccc1C2=O observation_type="growth inhibition" reported_result=89
compound=O=C(O)/C=C\C(=O)Nc1ccc2c(c1)Cc1cc(Cl)ccc1-2 observation_type="growth inhibition" reported_result=11.9
compound=O=C(O)c1c2ccc(Cl)cc2nc2[nH]c(=O)[nH]c(=O)c12 observation_type="growth inhibition" reported_result=79.5
compound=CCCN=Cc1cc(Cc2ccc(O)c(C=NCCC)c2)ccc1O observation_type="growth inhibition" reported_result=90.8
compound=S=C(NCc1ccccn1)N/N=C/c1ccccn1 observation_type="growth inhibition" reported_result=90.1
compound="N#CCC(=O)N/N=C(\\c1ccccc1)C(c1ccccc1)C1(O)C(=O)Nc2c(Cl)ccc(Cl)c21 (stereo not drawn)" observation_type="growth inhibition" reported_result=30.3
compound=Fc1cc(F)c(F)c(S)c1F observation_type="growth inhibition" reported_result=90.9
compound=CCCCCCNCCCNc1c2cc(OC)ccc2nc2cccc([N+](=O)[O-])c12 observation_type="growth inhibition" reported_result=92.7
compound=Cc1nc2sc3c(c2c(=O)o1)CCCC3 observation_type="growth inhibition" reported_result=72.9
compound=NNc1ccccc1-c1nc2ccccc2[nH]1 observation_type="growth inhibition" reported_result=76.9
compound="COC(=O)C1CCCCC1C(=O)Nc1ccccc1 (stereo not drawn)" observation_type="growth inhibition" reported_result=74.2
compound=CCCCCCCCCCCNC=O observation_type="growth inhibition" reported_result=89.4
compound=O=[N+]([O-])/C=C/c1cc2ccc3ccccc3c2[nH]1 observation_type="growth inhibition" reported_result=98.8
compound="CC12CCC(CC(=O)/C1=C(/Br)I)C2(C)C (stereo not drawn)" observation_type="growth inhibition" reported_result=78.3
compound="NC(CS)C(=O)NCCNc1ccc(NCCNC(=O)C(N)CS)c2c1C(=O)c1c(O)ccc(O)c1C2=O (stereo not drawn)" observation_type="growth inhibition" reported_result=68.2
compound="CCC[CH2][Ge]([CH2]CCC)([CH2]CCC)[O]C(=O)C(O)c1ccccc1 (stereo not drawn)" observation_type="growth inhibition" reported_result=88.3
compound=CCCCCCNCCCNc1c2ccccc2nc2cccc([N+](=O)[O-])c12 observation_type="growth inhibition" reported_result=43.9
compound="CC(CN(C)C)C(=O)/C=C/c1ccc(Cl)c(Cl)c1 (stereo not drawn)" observation_type="growth inhibition" reported_result=99.2
compound=COc1ccc2cc3c4cc5c(cc4cc[n+]3cc2c1OC)OCO5 observation_type="growth inhibition" reported_result=97.6

Every entry's value here was drawn from PubChem BioAssay (NCI).
